system: cultured cells of Taxus baccata LINN; experiment: Taxane-type diterpene yield and cell yield, shake culture of Taxus baccata cells with a jasmonic acid (or jasmone) added; type: cell-based; settings: 1000 μM added on 14th day, 7 more days
Give measured cell yield for each item. Keep answers brief.
# number only, unit g/L dropped from output

# get_value(readout='cell yield', item= CC/C=C\CC1C(=O)CCC1CC(=O)OC (stereo not shown) [methyl jasmonate] )
5.9

Quick one: cell yield for COC(=O)C[C@H]1CCC(=O)[C@H]1C/C=C\CCO [methyl tuberonate] ?
7.5

Entry CC/C=C\C[C@H]1[C@@H](CC(=O)OC)CC[C@@H]1O [methyl cucurbate] has what cell yield?
5.7

Dear colleague, I am looking for the recorded cell yield of the following compound: `CC/C=C\C[C@H]1C(=O)CC[C@@H]1CC(=O)O`
6.7

---

system: cultured cells of Taxus baccata LINN; test: Taxane-type diterpene yield and cell yield, shake culture of Taxus baccata cells with a jasmonic acid (or jasmone) added; type: cell-based; details: 0.1 μM added on 14th day, 7 more days
Please provide measured yield of baccatin III for the entries that follow.
Report only the number, with the unit mg/L understood.

// lookup yield of baccatin III for `CC/C=C\C[C@H]1C(=O)CC[C@@H]1CC(=O)O`
0.3

# get_value(readout='yield of baccatin III', item= CC/C=C\C[C@H]1[C@@H](CC(=O)OC)CC[C@@H]1O [methyl cucurbate] )
0.3

Fill in the blank: the reported yield of baccatin III of COC(=O)C[C@H]1CCC(=O)[C@H]1C/C=C\CCO [methyl tuberonate] is ____.
0.5

Endpoint output: yield of baccatin III of CC/C=C\CC1C(=O)CCC1CC(=O)OC (stereo not shown) [methyl jasmonate] . Value?
0.3

---

test system: cultured cells of Taxus baccata LINN; test: Taxane-type diterpene yield and cell yield, shake culture of Taxus baccata cells with a jasmonic acid (or jasmone) added; assay type: cell-based; settings: 1000 μM added on 14th day, 7 more days
Could you please report measured yield of taxol for the items listed next?
Kindly answer with a numeric value in mg/L, unit omitted.

Which yield of taxol is listed for CC/C=C\CC1C(=O)CCC1CC(=O)OC (stereo not shown) [methyl jasmonate] ?
3.1

Looking for the measured yield of taxol of COC(=O)C[C@H]1CCC(=O)[C@H]1C/C=C\CCO [methyl tuberonate] , can you help?
3.9

yield of taxol lookup needed for CC/C=C\C[C@H]1[C@@H](CC(=O)OC)CC[C@@H]1O [methyl cucurbate] , thanks.
4.2

Sample `CC/C=C\C[C@H]1C(=O)CC[C@@H]1CC(=O)O` — what was its yield of taxol?
1.2

---

system: cultured cells of Taxus baccata LINN; test: Taxane-type diterpene yield and cell yield, shake culture of Taxus baccata cells with a jasmonic acid (or jasmone) added; assay type: cell-based; conditions: 1 μM added on 14th day, 7 more days
OBSERVABLE: cell yield (g/L)
Give a bare numeral; the unit g/L is implied.

Form field: reported cell yield of CC/C=C\C[C@H]1[C@@H](CC(=O)OC)CC[C@@H]1O [methyl cucurbate]
10.4

Dear colleague, I am looking for the recorded cell yield of the following compound: COC(=O)C[C@H]1CCC(=O)[C@H]1C/C=C\CCO [methyl tuberonate]
13.2

Reported cell yield for CC/C=C\CC1C(=O)CCC1CC(=O)OC (stereo not shown) [methyl jasmonate] : what is it?
11.3

# lookup: cell yield of CC/C=C\C[C@H]1C(=O)CC[C@@H]1CC(=O)O [jasmonic acid]
11.6

---

Record form. Attribute: total yield of taxane. Fill in for each entry.
test system: cultured cells of Taxus baccata LINN; experiment: Growth rate and taxane yield, 21-day shake culture of Taxus baccata cells with heavy metal compound, amine, antiethylene agent or Ethrel added; format: cell-based; conditions: 10^−9 M added at start, 21 days
Output spec: scalar in mg/L, unitless text.

Which total yield of taxane reading was recorded for the compound `NCCCCN` ?
1.75

Tell me the measured total yield of taxane of `NCCCCNCCCN` , please.
1.21

Reported total yield of taxane, compound O=S([O-])([O-])=S.[Ag+].[Ag+] [silver thiosulfate, [Ag(S2O3)2]^3−] : ____
1.09

For the compound shown here, `NCCCNCCCCNCCCN` , give the reported total yield of taxane.
1.86

For the compound shown here, [Cl][Co][Cl] [cobalt chloride] , give the reported total yield of taxane.
0.98

---

Field: yield of taxol. Provide a value for each of the compounds that follow.
system: cultured cells of Taxus baccata LINN; test: Taxane-type diterpene yield and cell yield, shake culture of Taxus baccata cells with a jasmonic acid (or jasmone) added; type: cell-based; details: 10 μM added on 14th day, 7 more days
Write the numeric value and follow it with the unit.

What value of yield of taxol has been recorded for this entry: `CC/C=C\C[C@H]1C(=O)CC[C@@H]1CC(=O)O`
8.3 mg/L

May I ask what yield of taxol has been recorded for CC/C=C\C[C@H]1[C@@H](CC(=O)OC)CC[C@@H]1O [methyl cucurbate] ?
11.3 mg/L

Any idea what yield of taxol was measured for CC/C=C\CC1C(=O)CCC1CC(=O)OC (stereo not shown) [methyl jasmonate] ?
10.8 mg/L

Consider the compound shown here: COC(=O)C[C@H]1CCC(=O)[C@H]1C/C=C\CCO [methyl tuberonate] What is its recorded yield of taxol?
14.8 mg/L

---

system: cultured cells of Taxus baccata LINN; assay: Growth rate and taxane yield, 21-day shake culture of Taxus baccata cells with heavy metal compound, amine, antiethylene agent or Ethrel added; format: cell-based; conditions: 10^−3 M added on 14th day, 7 more days
Task for the reader: assign each of the following compounds its reported total yield of taxane.
Your answer should be a plain number; it is taken to be in mg/L.

Look up total yield of taxane: O=S([O-])([O-])=S.[Ag+].[Ag+] [silver thiosulfate, [Ag(S2O3)2]^3−]
10.59

GET /values?readout=total yield of taxane&item= Cl.NOCC(=O)O [aminooxyacetic acid, aminoxyacetic acid hydrochloride]
3.43

Could you share which total yield of taxane value was measured for O=[N+]([O-])[O-].[Ag+] [silver nitrate] ?
20.58

Can you share its total yield of taxane? I mean this compound: CCCOC(=O)c1cc(O)c(O)c(O)c1 [propyl gallate]
12.10

---

tested on: cultured cells of Taxus baccata LINN; test: Growth rate and taxane yield, 21-day shake culture of Taxus baccata cells with heavy metal compound, amine, antiethylene agent or Ethrel added; format: cell-based; details: 10^−2 M added at start, 21 days
So I've got a bunch of molecules here, and I need their yield of baccatin III values.
Please reply with the bare figure in mg/L and do not write the unit itself.

Form field: reported yield of baccatin III of `NCCCCN`
1.13

Please give the measured yield of baccatin III for this molecule: O=S([O-])([O-])=S.[Ag+].[Ag+] [silver thiosulfate, [Ag(S2O3)2]^3−]
0.72

Consider the molecule shown here: `NCCCCNCCCN` What is its recorded yield of baccatin III?
0.82

State the recorded yield of baccatin III for this entry: `NCCCNCCCCNCCCN`
0.70

Please give the measured yield of baccatin III for this molecule: [Cl][Co][Cl] [cobalt chloride]
0.44

---

system: cultured cells of Taxus baccata LINN; assay: Growth rate and taxane yield, 21-day shake culture of Taxus baccata cells with heavy metal compound, amine, antiethylene agent or Ethrel added; type: cell-based; conditions: 10^−3 M added on 14th day, 7 more days
OBSERVABLE: growth rate (times)
Please respond with the number in times and leave the unit unwritten.

Value wanted: growth rate (cultured cells of Taxus baccata LINN) of entry O=S([O-])([O-])=S.[Ag+].[Ag+] [silver thiosulfate, [Ag(S2O3)2]^3−]
2.5

Value wanted: growth rate (cultured cells of Taxus baccata LINN) of entry O=[N+]([O-])[O-].[Ag+] [silver nitrate]
2.8

What value of growth rate on cultured cells of Taxus baccata LINN does CCCOC(=O)c1cc(O)c(O)c(O)c1 [propyl gallate] have?
3.2

Item Cl.NOCC(=O)O [aminooxyacetic acid, aminoxyacetic acid hydrochloride] with cultured cells of Taxus baccata LINN - growth rate?
1.5

---

system: cultured cells of Taxus baccata LINN; experiment: Growth rate and taxane yield, 21-day shake culture of Taxus baccata cells with heavy metal compound, amine, antiethylene agent or Ethrel added; format: cell-based; conditions: 10^−2 M added at start, 21 days
Please respond with reported yield of taxol for every item in the list.
Write the value in mg/L as a bare number.

Value lookup for yield of taxol; key = O=S([O-])([O-])=S.[Ag+].[Ag+] [silver thiosulfate, [Ag(S2O3)2]^3−]
5.80

Quick one: yield of taxol of `NCCCNCCCCNCCCN` ?
1.06

Recorded yield of taxol for `NCCCCN` , please?
1.06

Using the record for `NCCCCNCCCN` , report its yield of taxol.
3.89

Which measured yield of taxol value corresponds to [Cl][Co][Cl] [cobalt chloride] ?
0.92

---

test system: cultured cells of Taxus baccata LINN; assay: Taxane-type diterpene yield and cell yield, shake culture of Taxus baccata cells with a jasmonic acid (or jasmone) added; assay type: cell-based; settings: 250 μM added on 14th day, 7 more days
OBSERVABLE: yield of baccatin III (mg/L)
Expressed in mg/L, but write only the number.

What yield of baccatin III value was documented for this compound, `CC/C=C\C[C@H]1C(=O)CC[C@@H]1CC(=O)O` ?
10.6

Which value of yield of baccatin III has been reported for COC(=O)C[C@H]1CCC(=O)[C@H]1C/C=C\CCO [methyl tuberonate] in the records?
14.5

Reported yield of baccatin III, compound CC/C=C\C[C@H]1[C@@H](CC(=O)OC)CC[C@@H]1O [methyl cucurbate] : ____
10.6

Dear colleague, I am looking for the recorded yield of baccatin III of the following compound: CC/C=C\CC1C(=O)CCC1CC(=O)OC (stereo not shown) [methyl jasmonate]
12.9

From: patent US6403343B2
